# test.system: T1, hPRLR.mmh (soluble monomeric human PRLR) (human)
# T1 construct: called soluble monomeric PRLR protein
# T1 chain: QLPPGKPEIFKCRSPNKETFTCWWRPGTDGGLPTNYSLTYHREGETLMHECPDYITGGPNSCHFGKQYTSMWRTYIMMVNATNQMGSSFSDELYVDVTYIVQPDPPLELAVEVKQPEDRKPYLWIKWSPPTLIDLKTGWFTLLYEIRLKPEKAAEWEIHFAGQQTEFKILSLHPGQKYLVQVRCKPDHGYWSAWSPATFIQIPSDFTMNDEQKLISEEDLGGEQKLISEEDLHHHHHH
# assay.notes: SPR Biacore, 25 C, mAb capture
measure.name: kon (M⁻¹ s⁻¹)
# output: bare number, implied unit M⁻¹ s⁻¹

Consider the worked cases shown below.
1) H1H6804P (antibody, human IgG1, V domains shown, Human IgG1 Fc (H1H)) VH: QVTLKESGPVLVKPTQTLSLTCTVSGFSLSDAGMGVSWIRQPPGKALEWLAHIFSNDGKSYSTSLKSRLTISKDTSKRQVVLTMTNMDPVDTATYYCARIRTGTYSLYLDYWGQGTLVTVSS VL: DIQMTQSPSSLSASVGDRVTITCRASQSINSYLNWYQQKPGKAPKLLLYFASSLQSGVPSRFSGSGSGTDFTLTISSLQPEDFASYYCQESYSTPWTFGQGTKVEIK	453000
2) H1H6801P (antibody, human IgG1, V domains shown, Human IgG1 Fc (H1H)) VH: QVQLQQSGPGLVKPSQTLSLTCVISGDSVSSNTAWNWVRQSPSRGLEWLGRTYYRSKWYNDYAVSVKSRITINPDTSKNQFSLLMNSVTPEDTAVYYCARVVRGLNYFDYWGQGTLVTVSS VL: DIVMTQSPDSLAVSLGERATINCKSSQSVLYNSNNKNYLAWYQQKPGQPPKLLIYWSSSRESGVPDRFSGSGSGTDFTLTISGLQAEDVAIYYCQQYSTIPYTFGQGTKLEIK	846000
3) H1H6975N (antibody, human IgG1, V domains shown, Tested with human IgG1 Fc (H1H); also called H2M6975N) VH: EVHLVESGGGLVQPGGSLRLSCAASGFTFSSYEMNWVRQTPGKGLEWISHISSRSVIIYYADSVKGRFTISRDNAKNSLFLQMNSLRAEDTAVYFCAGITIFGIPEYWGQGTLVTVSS VL: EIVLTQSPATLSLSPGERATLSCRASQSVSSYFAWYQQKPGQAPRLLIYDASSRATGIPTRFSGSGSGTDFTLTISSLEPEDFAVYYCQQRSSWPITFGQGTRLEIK	150000

Pending binder:
I would be grateful if you could share the reported kon for H1H6959N2 (antibody, human IgG1, V domains shown, Tested with human IgG1 Fc (H1H); also called H2M6959N2) VH: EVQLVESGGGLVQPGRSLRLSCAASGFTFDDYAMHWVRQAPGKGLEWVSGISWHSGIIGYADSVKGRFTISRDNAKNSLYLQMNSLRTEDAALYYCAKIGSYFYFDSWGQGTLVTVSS VL: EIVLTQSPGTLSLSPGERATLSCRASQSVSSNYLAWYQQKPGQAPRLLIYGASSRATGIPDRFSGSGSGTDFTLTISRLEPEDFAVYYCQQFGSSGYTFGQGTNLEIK .
179000
